Origin of the recorded values: the supplement of paper PMC12645437

# target-entity: T1, CRBN, Q96SW2;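 also: pooled lentiviral library of zinc finger degron-EGFP fusions in mCherry-positive Jurkat cells, FACS-sorted after compound exposure, with degron abundance counted by next-generation sequencing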
# T1 chain: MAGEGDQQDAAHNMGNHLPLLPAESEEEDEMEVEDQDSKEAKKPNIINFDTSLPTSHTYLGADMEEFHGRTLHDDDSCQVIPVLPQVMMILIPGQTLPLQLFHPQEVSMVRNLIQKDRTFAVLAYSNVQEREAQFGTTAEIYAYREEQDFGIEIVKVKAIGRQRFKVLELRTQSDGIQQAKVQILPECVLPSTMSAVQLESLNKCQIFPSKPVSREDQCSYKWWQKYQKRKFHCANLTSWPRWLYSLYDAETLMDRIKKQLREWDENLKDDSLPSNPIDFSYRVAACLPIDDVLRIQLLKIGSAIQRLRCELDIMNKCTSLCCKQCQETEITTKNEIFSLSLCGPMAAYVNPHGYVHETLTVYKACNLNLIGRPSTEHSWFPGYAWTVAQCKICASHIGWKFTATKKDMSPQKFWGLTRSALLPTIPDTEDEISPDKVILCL
# assay-notes: log2 fold change of degron read counts, EGFP-low vs EGFP+ sorted cells (limma voom), compound-induced degradation; higher = more compound-induced degradation of the degron-EGFP fusion; degrons are variants of IKZF1/3 zinc finger 2; compound dose not given here
# conditions-used: Jurkat; 18 h; compound: compound 22 (5-morpholino-thalidomide)
The full ranking holds about 8,300 sequences; the median of “log2 fold change of degron read counts, EGFP-low vs EGFP+ sorted cells (limma voom), compound-induced degradation” is about -1.1, and the highest 2% start at about 3.2. The full list was thinned out, with the highest values kept by preference.
// map log2 fold change of degron read counts onto a label; ranges category 1: < -2; category 2: ≥ -2 and < 2; category 3: ≥ 2

Query: # classify by log2 fold change of degron read counts band: LDCNQCGFQCTQKGNLLRHIKL [46L_47D_49N_50Q_52G_53F_54Q_55C_67L_, Q9UKT9]
Result: category 1

Query: # classify by log2 fold change of degron read counts band: FVCEQCGADFTQKGNLLRHIKL [46F_47V_49E_50Q_52G_53A_54D_55F_67L_, Q9UKT9]
Result: category 1

Query: # classify by log2 fold change of degron read counts band: FKCEQCGAVFTQKGNLLRHIKL [46F_47K_49E_50Q_52G_53A_54V_55F_67L_, Q9UKT9]
Result: category 1

Query: # classify by log2 fold change of degron read counts band: FVCEQCGAIFTQKGNLLRHIKL [46F_47V_49E_50Q_52G_53A_54I_55F_67L_, Q9UKT9]
Result: category 1

Query: # classify by log2 fold change of degron read counts band: FTCNQCGALFTQKGNLLRHIKL [46F_47T_49N_50Q_52G_53A_54L_55F_67L_, Q9UKT9]
Result: category 1

Query: # classify by log2 fold change of degron read counts band: FRCPICGAQFTQKGNLLRHIKL [46F_47R_49P_50I_52G_53A_54Q_55F_67L_, Q9UKT9]
Result: category 2

Query: # classify by log2 fold change of degron read counts band: FTCEQCGAYFTQKGNLLRHIKL [46F_47T_49E_50Q_52G_53A_54Y_55F_67L_, Q9UKT9]
Result: category 2

Query: # classify by log2 fold change of degron read counts band: FWCEICGAFFTQKGNLLRHIKL [46F_47W_49E_50I_52G_53A_54F_55F_67L_, Q9UKT9]
Result: category 3

Query: # classify by log2 fold change of degron read counts band: FDCPICGAEFTQKGNLLRHIKL [46F_47D_49P_50I_52G_53A_54E_55F_67L_, Q9UKT9]
Result: category 2

Query: # classify by log2 fold change of degron read counts band: FCCSVCGHVFTQKGNLLRHIKL [46F_47C_49S_50V_52G_53H_54V_55F_67L_, Q9UKT9]
Result: category 1

Query: # classify by log2 fold change of degron read counts band: FYCNQCGRCFTQKGNLLRHIKL [46F_47Y_49N_50Q_52G_53R_54C_55F_67L_, Q9UKT9]
Result: category 1

Query: # classify by log2 fold change of degron read counts band: FMCNVCGAMFTQKGNLLRHIKL [46F_47M_49N_50V_52G_53A_54M_55F_67L_, Q9UKT9]
Result: category 1

Query: # classify by log2 fold change of degron read counts band: FSCPICGAYFTQKGNLLRHIKL [46F_47S_49P_50I_52G_53A_54Y_55F_67L_, Q9UKT9]
Result: category 2

Query: # classify by log2 fold change of degron read counts band: FFCNICGAKFTQKGNLLRHIKL [46F_47F_49N_50I_52G_53A_54K_55F_67L_, Q9UKT9]
Result: category 2

Query: # classify by log2 fold change of degron read counts band: FCCDICGAEFTQKGNLLRHIKL [46F_47C_49D_50I_52G_53A_54E_55F_67L_, Q9UKT9]
Result: category 2

Query: # classify by log2 fold change of degron read counts band: FTCPICGASFTQKGNLLRHIKL [46F_47T_49P_50I_52G_53A_54S_55F_67L_, Q9UKT9]
Result: category 3

Query: # classify by log2 fold change of degron read counts band: LTCNQCGFLCTQKGNLLRHIKL [46L_47T_49N_50Q_52G_53F_54L_55C_67L_, Q9UKT9]
Result: category 1

Query: # classify by log2 fold change of degron read counts band: FYCPICGAYFTQKGNLLRHIKL [46F_47Y_49P_50I_52G_53A_54Y_55F_67L_, Q9UKT9]
Result: category 3

Query: # classify by log2 fold change of degron read counts band: FECPICGAQFTQKGNLLRHIKL [46F_47E_49P_50I_52G_53A_54Q_55F_67L_, Q9UKT9]
Result: category 2

Query: # classify by log2 fold change of degron read counts band: FFCNICGASFTQKGNLLRHIKL [46F_47F_49N_50I_52G_53A_54S_55F_67L_, Q9UKT9]
Result: category 3

Query: # classify by log2 fold change of degron read counts band: FICPICGAQFTQKGNLLRHIKL [46F_47I_49P_50I_52G_53A_54Q_55F_67L_, Q9UKT9]
Result: category 3

Query: # classify by log2 fold change of degron read counts band: FQCPICGAYFTQKGNLLRHIKL [46F_47Q_49P_50I_52G_53A_54Y_55F_67L_, Q9UKT9]
Result: category 2

Query: # classify by log2 fold change of degron read counts band: FFCPICGAQFTQKGNLLRHIKL [46F_47F_49P_50I_52G_53A_54Q_55F_67L_, Q9UKT9]
Result: category 3

Query: # classify by log2 fold change of degron read counts band: FTCPICGAQFTQKGNLLRHIKL [46F_47T_49P_50I_52G_53A_54Q_55F_67L_, Q9UKT9]
Result: category 3

Query: # classify by log2 fold change of degron read counts band: FFCNQCGHRFTQKGNLLRHIKL [46F_47F_49N_50Q_52G_53H_54R_55F_67L_, Q9UKT9]
Result: category 2

Query: # classify by log2 fold change of degron read counts band: FVCPICGAYFTQKGNLLRHIKL [46F_47V_49P_50I_52G_53A_54Y_55F_67L_, Q9UKT9]
Result: category 2

Query: # classify by log2 fold change of degron read counts band: FKCPICGAQFTQKGNLLRHIKL [46F_47K_49P_50I_52G_53A_54Q_55F_67L_, Q9UKT9]
Result: category 2

Query: # classify by log2 fold change of degron read counts band: FGCPICGASFTQKGNLLRHIKL [46F_47G_49P_50I_52G_53A_54S_55F_67L_, Q9UKT9]
Result: category 3
